# Experimental system: MHC-II DRB1*04:01 (Homo sapiens, UniProt P01903+P01911, A100K/A169T/F76Y/I96L/K127E/L162R/M171V/N62H/P40V/Q125Y/R42H/S133A/S149N/S66Y/V115G/V209L/W38E)
# Procedure details: Cell-free REVEAL class II stability assay
# Condition summary: half-life of peptide-MHC-II complex (h, capped at 120) x Binding Score / 100, conformational ELISA
// reported Stability Index per item
Measured attribute: Stability Index

INSERT INTO assay_data (biosequence, readout_number) VALUES
  ('LQVDFQKTMKVTGVT [synthetic wild type FVIII 15 mer peptide, region of ns-SNP M2238V]', 0.9),
  ('SYWKASEGAEYDDQT [synthetic wild type FVIII 15 mer peptide]', 0.2),
  ('QKFSSLYISQFIIMY [synthetic wild type FVIII 15 mer peptide]', 0.2);

====

# Experimental system: MHC-II DRB1*07:01 (Homo sapiens, UniProt P01903+P01911, A100R/A102G/A103Q/D57E/D86V/E43K/F76Y/K127E/L162R/M171V/P40G/Q125H/Q99D/R33Q/R42Y/R54Q/S133A/S66F/T210M/V115G/Y107V/Y59L/Y89S)
# Procedure details: Cell-free REVEAL class II binding assay
# Condition summary: signal of test peptide as percentage of allele-specific positive control peptide, fluorescence, conformation-specific monoclonal antibody
# Text: We used a proprietary high throughput, REVEAL binding assay (ProImmune, www.proimmune.com) to estimate the binding of individual test peptides to the following MHC-II variants: DRB1*03:01, DRB1*04:01, DRB1*07:01, DRB1*11:01, DRB1*15:01 and DRB1*15:03 [28]. […] The peptide-MHC-II complex is detected by an increase in a fluorescence signal due to the binding of a specific monoclonal antibody. […]
Measured attribute: Binding Score

INSERT INTO measurements (biosequence, result) VALUES
  ('TLTLFPFSGETVFMS [synthetic wild type FVIII 15 mer peptide]', '0.0%'),
  ('LSTRQNVEGSYDGAY [synthetic wild type FVIII 15 mer peptide, region of ns-SNP D1241E]', '0.0%'),
  ('RQNVEGSYDGAYAPV [synthetic wild type FVIII 15 mer peptide, region of ns-SNP D1241E]', '0.0%'),
  ('SDPRCLTRYYSSFVN [synthetic wild type FVIII 15 mer peptide]', '0.1%'),
  ('YIRLHPTHYSIRSTL [synthetic wild type FVIII 15 mer peptide]', '17.2%'),
  ('PQVNNPKEWLQVDFQ [synthetic wild type FVIII 15 mer peptide]', '0.0%'),
  ('SYDGAYAPVLQDFRS [synthetic wild type FVIII 15 mer peptide, region of ns-SNP D1241E]', '0.0%'),
  ('QKFSSLYISQFIIMY [synthetic wild type FVIII 15 mer peptide]', '0.0%'),
  ('NPPIIARYIRLHPTH [synthetic wild type FVIII 15 mer peptide]', '0.2%'),
  ('LQVDFQKTMKVTGVT [synthetic wild type FVIII 15 mer peptide, region of ns-SNP M2238V]', '0.1%'),
  ('GPTKSDPRCLTRYYS [synthetic wild type FVIII 15 mer peptide]', '0.0%'),
  ('KTDPWFAHRTPMPKI [synthetic wild type FVIII 15 mer peptide, region of ns-SNP R776G]', '4.0%'),
  ('IARYIRLHPTHYSIR [synthetic wild type FVIII 15 mer peptide]', '0.0%'),
  ('DIEKTDPWFAHRTPM [synthetic wild type FVIII 15 mer peptide, region of ns-SNP R776G]', '0.0%');

====

# Experimental system: MHC-II DRB1*15:01 (Homo sapiens, UniProt P01903+P01911)
# Construct: purchased ProImmune
# Procedure details: Cell-free REVEAL class II binding assay
# Condition summary: signal of test peptide as percentage of allele-specific positive control peptide, fluorescence, conformation-specific monoclonal antibody
Flag rule - Binding Score less than 0.4% flags Met; the remaining entries get Not met.

INSERT INTO assay_data (biosequence, experimental_system, qualitative_label) VALUES
  ('SRPYNIYPHGITDVR [synthetic wild type FVIII 15 mer peptide, region of ns-SNP R484H]', 'MHC-II DRB1*15:01 (Homo sapiens, UniProt P01903+P01911)', 'Met'),
  ('PQVNNPKEWLQVDFQ [synthetic wild type FVIII 15 mer peptide]', 'MHC-II DRB1*15:01 (Homo sapiens, UniProt P01903+P01911)', 'Met'),
  ('TKSDPRCLTRYYSSF [synthetic wild type FVIII 15 mer peptide]', 'MHC-II DRB1*15:01 (Homo sapiens, UniProt P01903+P01911)', 'Not met'),
  ('SYDGAYAPVLQDFRS [synthetic wild type FVIII 15 mer peptide, region of ns-SNP D1241E]', 'MHC-II DRB1*15:01 (Homo sapiens, UniProt P01903+P01911)', 'Met'),
  ('VVNSLDPPLLTRYLR [synthetic wild type FVIII 15 mer peptide]', 'MHC-II DRB1*15:01 (Homo sapiens, UniProt P01903+P01911)', 'Not met'),
  ('YNIYPHGITDVRPLY [synthetic wild type FVIII 15 mer peptide, region of ns-SNP R484H]', 'MHC-II DRB1*15:01 (Homo sapiens, UniProt P01903+P01911)', 'Not met'),
  ('GITDVRPLYSRRLPK [synthetic wild type FVIII 15 mer peptide, region of ns-SNP R484H]', 'MHC-II DRB1*15:01 (Homo sapiens, UniProt P01903+P01911)', 'Not met');

====

# Experimental system: MHC-II DRB1*07:01 (Homo sapiens, UniProt P01903+P01911, A100R/A102G/A103Q/D57E/D86V/E43K/F76Y/K127E/L162R/M171V/P40G/Q125H/Q99D/R33Q/R42Y/R54Q/S133A/S66F/T210M/V115G/Y107V/Y59L/Y89S)
# Procedure details: Cell-free REVEAL class II binding assay
# Condition summary: signal of test peptide as percentage of allele-specific positive control peptide, fluorescence, conformation-specific monoclonal antibody
Measured attribute: Binding Score (%)

INSERT INTO assay_data (biosequence, measure_unit, readout_number) VALUES
  ('PPLLTRYLRIHPQSW [synthetic wild type FVIII 15 mer peptide]', '%', 7.0),
  ('AWRPQVNNPKEWLQV [synthetic wild type FVIII 15 mer peptide]', '%', 0.0),
  ('SLHAVGVSYWKASEG [synthetic wild type FVIII 15 mer peptide]', '%', 0.2),
  ('PKEWLQVDFQKTMKV [synthetic wild type FVIII 15 mer peptide, region of ns-SNP M2238V]', '%', 0.0),
  ('DGAYAPVLQDFRSLN [synthetic wild type FVIII 15 mer peptide, region of ns-SNP D1241E]', '%', 0.1),
  ('PIIARYIRLHPTHYS [synthetic wild type FVIII 15 mer peptide]', '%', 0.0),
  ('ASEGAEYDDQTSQRE [synthetic wild type FVIII 15 mer peptide]', '%', 0.0);

====

// reported Stability Index per item
# Experimental system: MHC-II DRB1*03:01 (Homo sapiens, UniProt P01903+P01911, A100K/A102G/A103R/A169T/F55Y/I96L/K41T/L162R/M171V/P40S/Q125H/Q178H/Q39Y/R42S/S66N/T106N/T262R/W38E/Y61H)
# Sequence (P01903 26-254 limits assumed, other chains not shown): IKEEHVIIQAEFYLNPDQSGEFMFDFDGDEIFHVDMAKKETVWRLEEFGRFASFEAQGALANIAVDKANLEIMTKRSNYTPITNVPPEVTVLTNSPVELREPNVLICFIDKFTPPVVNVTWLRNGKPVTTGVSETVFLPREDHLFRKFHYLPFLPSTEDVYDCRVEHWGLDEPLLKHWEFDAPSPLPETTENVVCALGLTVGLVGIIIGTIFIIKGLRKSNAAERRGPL
# Procedure details: Cell-free REVEAL class II stability assay
# Condition summary: half-life of peptide-MHC-II complex (h, capped at 120) x Binding Score / 100, conformational ELISA
# Protocol: We measured the half-life of each peptide-MHC-II complex using REVEAL peptide-MHC affinity assays developed by ProImmune Ltd. (Oxford, UK). On-rates of peptides were measured over a 96-hr period at 10°C. […] Assembly of peptide-MHC complexes was detected using a conformational ELISA involving an anti-HLA antibody. On-rates were calculated by fitting data to a one-phase association curve: [drawing 1] […] Percent denaturation of peptide-MHC complexes was also detected using a conformational ELISA. […]
Measured attribute: Stability Index

INSERT INTO assay_data (biosequence, readout_number) VALUES
  ('AHRTPMPKIQNVSSS [synthetic wild type FVIII 15 mer peptide, region of ns-SNP R776G]', 0.0),
  ('DIEKTDPWFAHRTPM [synthetic wild type FVIII 15 mer peptide, region of ns-SNP R776G]', 0.0),
  ('DGAYAPVLQDFRSLN [synthetic wild type FVIII 15 mer peptide, region of ns-SNP D1241E]', 2.0),
  ('PWFAHRTPMPKIQNV [synthetic wild type FVIII 15 mer peptide, region of ns-SNP R776G]', 0.1),
  ('SLHAVGVSYWKASEG [synthetic wild type FVIII 15 mer peptide]', 0.1),
  ('PPLLTRYLRIHPQSW [synthetic wild type FVIII 15 mer peptide]', 0.0),
  ('PLLTRYLRIHPQSWV [synthetic wild type FVIII 15 mer peptide]', 0.0),
  ('GPTKSDPRCLTRYYS [synthetic wild type FVIII 15 mer peptide]', 1.6),
  ('LQVDFQKTMKVTGVT [synthetic wild type FVIII 15 mer peptide, region of ns-SNP M2238V]', 13.5);
